experiment: Liver microsomes metabolic stability assay, human; assay type: in vitro ADME; settings: human liver microsomes 0.5 mg/mL, 37° C.
endpoint label: microsomal CLint at 2 μM (µL/min/mg)

query smiles	endpoint label	units text	reading
C[C@@](O)(c1nnc(-c2cnn3ccc(N4CCC[C@@H]4c4cc(F)ccc4F)nc23)[nH]1)C(F)(F)F	microsomal CLint at 2 μM	µL/min/mg	23
C[C@H](O)c1nnc(-c2cnn3ccc(N4CCC[C@@H]4c4cc(F)ccc4F)nc23)[nH]1	microsomal CLint at 2 μM	µL/min/mg	20.4
COc1cc2nc(-c3cnn4ccc(N5CCC[C@@H]5c5cc(F)ccc5F)nc34)[nH]c2cc1C(=O)O	microsomal CLint at 2 μM	µL/min/mg	5.6

P = Fc1ccc(F)c([C@H]2CCCN2c2ccn3ncc(-c4nc5cc(OC(F)(F)F)ccc5[nH]4)c3n2)c1
Q = C[C@H](N)c1nnc(-c2cnn3ccc(N4CCC[C@@H]4c4cc(F)ccc4F)nc23)[nH]1
R = COCCOc1cc2nc(-c3cnn4ccc(N5CCC[C@@H]5c5cc(F)ccc5F)nc34)[nH]c2cc1OCCOC
List by increasing microsomal CLint at 2 μM. Output spec: labels arranged per the requested ranking.
Q, P, R
(Q: 4.27 µL/min/mg, P: 17 µL/min/mg, R: 49.4 µL/min/mg)
